This collection of values is drawn from the supplement of paper PMC8699584.

# Test system: Molm13
# assay.procedure: cell viability relative to DMSO control (bortezomib = 0%); higher = less growth inhibition
# setup.conditions: 10 nM; 72 h
Counter-ions that a name gives are not always drawn.
endpoint: cell viability (%)
// return numeric value only (unit: %, not printed)

Consider the following illustrative entries.
CCCCNc1ncc(C(=O)NCc2ccc(-n3ccnc3)cc2)c(NC2CCC(O)CC2)n1 (configuration not stated) = 103
CN(C)CCOc1ccc(-c2nc(-c3ccncc3)c(-c3ccc4c(c3)CC/C4=N\O)[nH]2)cc1 = 103
Nc1ncnc2c1c(I)cn2[C@@H]1O[C@H](CO)[C@@H](O)[C@H]1O [5-Iodotubercidin] = 92.6
O=C1Nc2ccc(CN3C(=O)CSC3=O)cc2/C1=C/c1cc(CN2CCOCC2)c[nH]1 = 92.3
C=CCn1c(=O)c2cnc(Nc3ccc(N4CCN(C)CC4)cc3)nc2n1-c1cccc(C(C)(C)O)n1 = 93.6
CCN(CC)CCNC(=O)c1c(C)[nH]c(/C=C2\C(=O)Nc3ccc(F)cc32)c1C [Sunitinib Malate] = 83.1
C=CC(=O)Nc1cccc(Nc2nc(Nc3ccc(N4CCN(C(C)=O)CC4)cc3OC)ncc2C(F)(F)F)c1 [Rociletinib (CO-1686, AVL-301)] = 108
FC(F)c1nc2ccccc2n1-c1nc(N2CCOCC2)nc(N2CCOCC2)n1 = 117

Which cell viability value is on record for CCOc1cc(C(=O)N2CCC(N3CCN(C)CC3)CC2)ccc1Nc1ncc2c(n1)N(C1CCCC1)c1ccccc1C(=O)N2C ? 111

Which cell viability value is on record for CCc1cc(-c2n[nH]c(C)c2-c2ccc3c(c2)OCCO3)c(O)cc1O ? 102

Which cell viability value is on record for C[C@@H]1CN(C(=O)c2ccc(NC(=O)c3cc(O[C@H](C)c4c(Cl)ccc(F)c4Cl)c(N)nn3)cc2)C[C@H](C)N1 [Ensartinib] ? 127

Which cell viability value is on record for COc1cc2nccc(Oc3ccc(NC(=O)C4(C(=O)Nc5ccc(F)cc5)CC4)cc3)c2cc1OC [XL184(Cabozantinib malate)] ? 15

Which cell viability value is on record for CNC(=O)c1cc(Oc2ccc(NC(=O)Nc3ccc(Cl)c(C(F)(F)F)c3)cc2)ccn1 ? 45

Which cell viability value is on record for COc1cc(Nc2c(C#N)cnc3cc(OCCCN4CCN(C)CC4)c(OC)cc23)c(Cl)cc1Cl [Bosutinib] ? 112

Which cell viability value is on record for Nc1nccc(-c2c(-c3ccc(F)cc3)ncn2C2CCCCC2)n1 ? 96.6

Which cell viability value is on record for Cc1cncc2cccc(S(=O)(=O)N3CCCN(C(=O)CN)C[C@@H]3C)c12 [(S)-Glycyl-H-1152 (hydrochloride)] ? 110

Which cell viability value is on record for CN(C)S(=O)(=O)c1ccc2c(c1)/C(=C/c1cc3c([nH]1)CCCC3)C(=O)N2 ? 113

====

# Test system: Molm13
# assay.procedure: cell viability relative to DMSO control (bortezomib = 0%); higher = less growth inhibition
# setup.conditions: 10 nM; 72 h
endpoint: cell viability (%)
// return numeric value only (unit: %, not printed)

Which cell viability value is on record for CC(C)(C#N)c1ccc(N2C(=O)OCc3cnc4ccc(-c5cnc6ccccc6c5)cc4c32)cc1 ? 93.6

Which cell viability value is on record for CC(C)[C@H](CO)Nc1nc(Nc2cccc(Cl)c2)c2ncn(C(C)C)c2n1 [Purvalanol A] ? 102

Which cell viability value is on record for CC(C)(C)Cn1c(N)nc2ccc(-c3[nH]c(C(C)(C)C)nc3-c3ccc(F)cc3)nc21 ? 100

Which cell viability value is on record for O=c1cc(-c2ccccc2)oc2c(O)c(O)ccc12 [7,8-Dihydroxyflavone] ? 108

Which cell viability value is on record for CC(C)(C)n1nc(-c2cccc3ccccc23)c2c(N)ncnc21 ? 95.9

Which cell viability value is on record for CS(=O)(=O)CCNCc1ccc(-c2ccc3ncnc(Nc4ccc(OCc5cccc(F)c5)c(Cl)c4)c3c2)o1 [Lapatinib] ? 96.5

Which cell viability value is on record for Cn1cc(-c2ccc3c(c2)CCN3C(=O)Cc2cccc(C(F)(F)F)c2)c2c(N)ncnc21 ? 105

Which cell viability value is on record for Cc1cnc(Nc2ccc(OCCN3CCCC3)cc2)nc1Nc1cccc(S(=O)(=O)NC(C)(C)C)c1 ? 86.3

Which cell viability value is on record for O=C(Nc1ccc2[nH]nc(-c3ccncc3)c2c1)[C@@H]1CCN(CC(=O)N2CCN(c3ccc(-c4ncccn4)cc3)CC2)C1 ? 92

Which cell viability value is on record for CNC(=O)c1cccc(-c2ccc3c(N4CCOC[C@@H]4C)nc(N4CCOC[C@@H]4C)nc3n2)c1 ? 83.7

Which cell viability value is on record for COc1ccc(S(=O)(=O)N(C(C)=O)c2ccccc2/C=C/c2cc[n+]([O-])cc2)cc1 ? 98.3

Which cell viability value is on record for C=CC(=O)N1CCC(Oc2cc3c(Nc4ccc(Cl)c(Cl)c4F)ncnc3cc2OC)CC1 [Poziotinib (HM781-36B)] ? 111

Which cell viability value is on record for N#Cc1c(-c2ccccc2)cc(-c2cc(Br)ccc2O)[nH]c1=O ? 125

Which cell viability value is on record for CN1CCCN(C(=O)c2cccc(-c3ccc(/C=C4/C(=O)Nc5ccc(Cl)cc54)o3)c2)CC1 ? 127

Which cell viability value is on record for O=C(NOCC1CC1)c1ccc(F)c(F)c1Nc1ccc(I)cc1Cl ? 105

Which cell viability value is on record for CS(=O)(=O)c1cccc(CNc2nc(Nc3ccc4c(c3)CCC(=O)N4)ncc2C(F)(F)F)c1 ? 98.4

Which cell viability value is on record for CNC(=O)c1cc(Oc2ccc(NC(=O)Nc3ccc(Cl)c(C(F)(F)F)c3)c(F)c2)ccn1 [Regorafenib (BAY 73-4506)] ? 101

Which cell viability value is on record for COc1cc(CCc2cc(NC(=O)c3ccc(N4CC(C)NC(C)C4)cc3)n[nH]2)cc(OC)c1 (centres undefined) ? 102

====

# Test system: Mv4-11
# assay.procedure: cell viability relative to DMSO control (bortezomib = 0%); higher = less growth inhibition
# setup.conditions: 10 nM; 72 h
Counter-ions that a name gives are not always drawn.
Property: cell viability; scope: individual compounds
// return numeric value only (unit: %, not printed)

Consider the following illustrative entries.
COc1cc(N2CCOCC2)ccc1Nc1ncc(F)c(Nc2ccccc2NS(C)(=O)=O)n1 = 111
Cc1cn(-c2cc(NC(=O)c3ccc(C)c(Nc4nccc(-c5cnccn5)n4)c3)cc(C(F)(F)F)c2)cn1 [Radotinib] = 107
Cn1sc(=O)n(Cc2ccccc2)c1=O = 108

Which cell viability value is on record for CCN1/C(=C/C(C)=O)Sc2ccc(OC)cc21 ? 104

Which cell viability value is on record for C=CCc1ccc(O)c(-c2ccc(O)c(CC=C)c2)c1 [Honokiol] ? 112

Which cell viability value is on record for O=C(NOCC1CC1)c1cc(Br)c(F)c(F)c1Nc1ccc(I)cc1Cl ? 113

Which cell viability value is on record for COc1cc2ncnc(Nc3ccc(O)c(Br)c3)c2cc1OC ? 112

Which cell viability value is on record for C=CC(=O)N1CCC[C@@H](n2nc(-c3ccc(Oc4ccccc4)cc3)c3c(N)ncnc32)C1 ? 93.2

Which cell viability value is on record for Cn1cnc2c(NCc3ccccc3)nc(NCCO)nc21 [Olomoucine] ? 104

Which cell viability value is on record for C[C@@H]1O[C@@H](Oc2c(-c3cc(O)c(O)c(O)c3)oc3cc(O)cc(O)c3c2=O)[C@H](O)[C@H](O)[C@H]1O [Myricetrin] ? 112

Which cell viability value is on record for Nc1ncnc2c1ncn2[C@@H]1O[C@H](COP(=O)(O)O)[C@@H](O)[C@H]1O [Adenosine 5'-monophosphate] ? 113

Which cell viability value is on record for C=CC(=O)Nc1cc2c(Nc3ccc(F)c(Cl)c3)ncnc2cc1OCCCN1CCOCC1 [Canertinib dihydrochloride] ? 111

Which cell viability value is on record for COc1cc2nccc(Oc3ccc(NC(=O)C4(C(=O)Nc5ccc(F)cc5)CC4)cc3)c2cc1OC ? 44.5

Which cell viability value is on record for COc1cc2nccc(Oc3ccc(NC(=O)C4(C(=O)Nc5ccc(F)cc5)CC4)cc3)c2cc1OC [XL184(Cabozantinib malate)] ? 42

Which cell viability value is on record for COc1ccc(Cl)c(Nc2nc3ccccc3nc2NS(=O)(=O)c2cccc(NC(=O)C(C)(C)N)c2)c1 [Pilaralisib (XL147)] ? 110

Which cell viability value is on record for Cc1[nH]c(/C=C2\C(=O)Nc3ccccc32)c(C)c1CCC(=O)O [TSU-68 (SU6668, Orantinib)] ? 122

Which cell viability value is on record for C=CC(=O)Nc1cccc(Nc2nc(Nc3ccc(OCCOC)cc3)ncc2F)c1 ? 110

Which cell viability value is on record for CN(C)C/C=C/C(=O)Nc1cc2c(Nc3ccc(F)c(Cl)c3)ncnc2cc1O[C@H]1CCOC1 [Afatinib (BIBW2992)] ? 97.7
